# Test system: Hafnia alvei
# procedure_text: MIC by agar dilution (NCCLS M7-A4), 288 enteropathogenic isolates, gemifloxacin and 15 other antimicrobials
# Format: cell-based
# assay_setup: read-out: MIC (mg/L) 50%; Hafnia alvei N= 32
Just a reminder that ties go to 0: only MIC strictly below 0.06 mg/L counts as 1.

compound=CC1(C)S[C@@H]2[C@H](NC(=O)[C@H](N)c3ccc(O)cc3)C(=O)N2[C@H]1C(=O)O classification=0
compound=CC1(C)S[C@@H]2[C@H](NC(=O)[C@H](N)c3ccccc3)C(=O)N2[C@H]1C(=O)O classification=0
compound=CO/N=C(\C(=O)N[C@@H]1C(=O)N2C(C(=O)O)=C(COC(C)=O)CS[C@H]12)c1csc(N)n1 classification=0
compound=CCn1cc(C(=O)O)c(=O)c2cc(F)c(N3CCNCC3)cc21 classification=1
compound="CC1COc2c(N3CCN(C)CC3)c(F)cc3c(=O)c(C(=O)O)cn1c23 (stereo not drawn)" classification=1

Below 0.06 mg/L on MIC? Entry Cc1c(F)c(N2CCNC(C)C2)cc2c1c(=O)c(C(=O)O)cn2C1CC1 (stereo not drawn)
1

Proceed to `C[C@H]1c2cccc(O)c2C(=O)C2=C(O)[C@]3(O)C(=O)C(C(N)=O)=C(O)[C@@H](N(C)C)[C@@H]3[C@@H](O)[C@@H]21`
0

Proceed to `C[C@H]1COc2c(N3CCN(C)CC3)c(F)cc3c(=O)c(C(=O)O)cn1c23`
1

====

The following molecules are listed with their measured MIC90 values.
# Test system: Proteus vulgaris
# procedure_text: MIC by NCCLS broth microdilution, 1100 Japanese clinical isolates 1997-1998
# Format: cell-based
# assay_setup: Proteus vulgaris (n=25); read-out: MIC90
Give just the number in µg/mL; leave the unit off.

Consider the following illustrative entries.
molecule=C[C@@H]1CN(c2c(F)c(N)c3c(=O)c(C(=O)O)cn(C4CC4)c3c2F)C[C@H](C)N1 unit_abbrev=µg/mL readout_value=1
molecule=N[C@@H]1[C@H]2CN(c3nc4c(cc3F)c(=O)c(C(=O)O)cn4-c3ccc(F)cc3F)C[C@@H]12 unit_abbrev=µg/mL readout_value=1
molecule="CO/N=C1\\CN(c2nc3c(cc2F)c(=O)c(C(=O)O)cn3C2CC2)CC1CN (racemic)" unit_abbrev=µg/mL readout_value=0.25

# ---- query molecule ----
So what's the measured MIC90 for this one? NC1CCN(c2nc3c(cc2F)c(=O)c(C(=O)O)cn3-c2ccc(F)cc2F)C1 (stereo not shown)
0.5

====

# System: Staphylococcus aureus
# procedure_text: MIC by agar macrodilution (NCCLS), 373 Gram positive isolates, Athens 1998
# Type: cell-based
# assay_setup: Methicillin-susceptible Staphylococcus aureus (n = 85); read-out: MIC50
measured_quantity: MIC50 (mg/L)
Give just the number in mg/L; leave the unit off.

Consider the following illustrative entries.
compound=CC[C@H]1OC(=O)[C@H](C)[C@@H](O[C@H]2C[C@@](C)(OC)[C@@H](O)[C@H](C)O2)[C@H](C)[C@@H](O[C@@H]2O[C@H](C)C[C@H](N(C)C)[C@H]2O)[C@](C)(OC)C[C@@H](C)C(=O)[C@H](C)[C@@H](O)[C@]1(C)O measured_quantity=MIC50 unit_abbrev=mg/L readout_value=0.25
compound=N[C@@H]1[C@H]2CN(c3nc4c(cc3F)c(=O)c(C(=O)O)cn4-c3ccc(F)cc3F)C[C@@H]12 measured_quantity=MIC50 unit_abbrev=mg/L readout_value=0.06
compound=CC[C@H]1OC(=O)[C@H](C)[C@@H](O[C@H]2C[C@@](C)(OC)[C@@H](O)[C@H](C)O2)[C@H](C)[C@@H](O[C@@H]2O[C@H](C)C[C@H](N(C)C)[C@H]2O)[C@](C)(O)C[C@@H](C)CN(C)[C@H](C)[C@@H](O)[C@]1(C)O measured_quantity=MIC50 unit_abbrev=mg/L readout_value=1
compound="Cc1c(F)c(N2CCNC(C)C2)cc2c1c(=O)c(C(=O)O)cn2C1CC1 (centres unmarked)" measured_quantity=MIC50 unit_abbrev=mg/L readout_value=0.125

# ---- query compound ----
So what MIC50 did CO/N=C1\CN(c2nc3c(cc2F)c(=O)c(C(=O)O)cn3C2CC2)CC1CN (racemic) get with Staphylococcus aureus?
0.06

====

# Tested on: Streptococcus pneumoniae
# procedure_text: MIC by two-fold serial agar dilution, Sensitivity Disk agar-N (Kitasato isolates)
# Format: cell-based
# assay_setup: Streptococcus pneumoniae, Ciprofloxacin-susceptible (94); read-out: MIC90
The following compounds are listed with their measured MIC90 values.
Give just the number in µg/mL; leave the unit off.

compound="CC1(C)S[C@@H]2[C@H](NC(=O)[C@H](N)c3ccc(O)cc3)C(=O)N2[C@H]1C(=O)O [Amoxycillin, amoxycillin]" unit_abbrev=µg/mL readout_value=0.5

So what's the measured MIC90 for this one? CO/N=C(\C(=O)N[C@@H]1C(=O)N2C(C(=O)O)=C(/C=C\c3scnc3C)CS[C@H]12)c1csc(N)n1 [Cefditoren, cefditoren]
0.25

Proceed to CO/N=C1\CN(c2nc3c(cc2F)c(=O)c(C(=O)O)cn3C2CC2)CC1CN (racemic) [Gemifloxacin]
0.031

Proceed to C[C@H]1COc2c(N3CCN(C)CC3)c(F)cc3c(=O)c(C(=O)O)cn1c23 [Levofloxacin, levofloxacin]
1

Proceed to C[C@@H]1CN(c2c(F)c(N)c3c(=O)c(C(=O)O)cn(C4CC4)c3c2F)C[C@H](C)N1 [Sparfloxacin, sparfloxacin]
0.25

Proceed to NC1CCN(c2nc3c(cc2F)c(=O)c(C(=O)O)cn3-c2ccc(F)cc2F)C1 (stereo not drawn) [Tosufloxacin, tosufloxacin]
0.25

====

# Test system: E. coli
# procedure_text: microbe, parasite or virus in culture
# Type: cell-based
# assay_setup: Escherichia coli, E. coli KU1031, mutant type SP
measured_quantity: MIC (µg/mL)
Give just the number in µg/mL; leave the unit off.

Consider the following illustrative entries.
compound=C[C@@H]1CN(c2c(F)c(N)c3c(=O)c(C(=O)O)cn(C4CC4)c3c2F)C[C@H](C)N1 readout_value=0.031
compound=N[C@@H]1[C@H]2CN(c3nc4c(cc3F)c(=O)c(C(=O)O)cn4-c3ccc(F)cc3F)C[C@@H]12 readout_value=0.063
compound=C[C@H]1COc2c(N3CCN(C)CC3)c(F)cc3c(=O)c(C(=O)O)cn1c23 readout_value=0.063

So what's the measured MIC for this one? CO/N=C1\CN(c2nc3c(cc2F)c(=O)c(C(=O)O)cn3C2CC2)CC1CN (racemic)
0.031

Proceed to NC1CCN(c2nc3c(cc2F)c(=O)c(C(=O)O)cn3-c2ccc(F)cc2F)C1 (centres unmarked)
0.031

====

# System: Streptococcus pneumoniae
# procedure_text: MIC by NCCLS reference broth microdilution, 450 respiratory tract pathogens
# Type: cell-based
# assay_setup: Streptococcus pneumoniae, penicillin resistant (n = 18)
measured_quantity: MIC50

compound="O=C(O)c1cn(C2CC2)c2cc(N3CCNCC3)c(F)cc2c1=O [Ciprofloxacin, ciprofloxacin]" readout_value="0.5 µg/mL"
compound="CO/N=C1\\CN(c2nc3c(cc2F)c(=O)c(C(=O)O)cn3C2CC2)CC1CN (racemic) [Gemifloxacin]" readout_value="≤ 0.0075 µg/mL"
compound="C[C@H]1COc2c(N3CCN(C)CC3)c(F)cc3c(=O)c(C(=O)O)cn1c23 [Levofloxacin, levofloxacin]" readout_value="0.5 µg/mL"

# ---- query compound ----
So what's the measured MIC50 for this one? NC1CCN(c2c(F)cc3c(=O)c(C(=O)O)cn(C4CC4)c3c2Cl)C1 (stereo not shown) [Clinafloxacin, clinafloxacin]
0.12 µg/mL

====

# Test system: Streptococcus pneumoniae
# procedure_text: MIC by NCCLS broth microdilution, 1100 Japanese clinical isolates 1997-1998
# Type: cell-based
# assay_setup: Streptococcus pneumoniae erythromycin susceptible (n=11)
measured_quantity: MIC Range

Consider the following illustrative entries.
compound=N[C@@H]1[C@H]2CN(c3nc4c(cc3F)c(=O)c(C(=O)O)cn4-c3ccc(F)cc3F)C[C@@H]12 measured_quantity="MIC Range" readout_value="0.063 to 0.125 µg/mL"
compound=C[C@@H]1CN(c2c(F)c(N)c3c(=O)c(C(=O)O)cn(C4CC4)c3c2F)C[C@H](C)N1 measured_quantity="MIC Range" readout_value="0.125 to 0.25 µg/mL"
compound=C[C@H]1COc2c(N3CCN(C)CC3)c(F)cc3c(=O)c(C(=O)O)cn1c23 measured_quantity="MIC Range" readout_value="0.5 to 1 µg/mL"
compound="NC1CCN(c2nc3c(cc2F)c(=O)c(C(=O)O)cn3-c2ccc(F)cc2F)C1 (centres unmarked)" measured_quantity="MIC Range" readout_value="0.125 to 0.25 µg/mL"

# ---- query compound ----
So what MIC Range did CO/N=C1\CN(c2nc3c(cc2F)c(=O)c(C(=O)O)cn3C2CC2)CC1CN (racemic) get with Streptococcus pneumoniae?
0.016 to 0.032 µg/mL
